Target: T1, human NKp46 (human, UniProt O76036 22-304)
T1 construct: also called CD335; NCR1
T1 sequence (O76036 22-304 Q82K): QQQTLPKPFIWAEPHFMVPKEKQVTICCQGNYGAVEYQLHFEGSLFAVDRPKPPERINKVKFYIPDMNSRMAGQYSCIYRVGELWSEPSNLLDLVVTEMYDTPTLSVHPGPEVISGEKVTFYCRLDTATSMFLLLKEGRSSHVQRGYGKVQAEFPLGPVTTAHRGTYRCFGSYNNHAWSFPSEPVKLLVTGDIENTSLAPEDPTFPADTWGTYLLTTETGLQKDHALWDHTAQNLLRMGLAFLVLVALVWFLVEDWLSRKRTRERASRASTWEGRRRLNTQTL
Assay: flow cytometry, HEK293F cells transfected with human NKp46
The following binders are listed with their measured Bmax (MFI) values.
measured metric: Bmax (MFI)

# binder, measure unit, experimental result
records = [
    ("NKp46-hz5D7v3-Fc* (Fc fusion, VHH-Fc fusion with an IgG1 Fc lacking a hinge (Fc*); also called NKp46-bz5D7v3-Fc*) EVQLVESGGGEVQPGGSLRLSCAASGRTFASAAMGWFRQAPGKEREFVAAISRSDDTYYAESVKGRFTISRDNAKNTVYLQMSSLRAEDTAVYYCAAVVPTYGNNIYVHSAAYNYWGQGTLVTVKPGGGGPSVFLFPPKPKDTLMISRTPEVTCVVVDVSHEDPEVKFNWYVDGVEVHNAKTKPREEQYNSTYRVVSVLTVLHQDWLNGKEYKCKVSNKALPAPIEKTISKAKGQPREPQVYTLPPSRDELTKNQVSLTCLVKGFYPSDIAVEWESNGQPENNYKTTPPVLDSDGSFFLYSKLTVDKSRWQQGNVFSCSVMHEALHNHYTQKSLSLSPG", "MFI", "1.27e+06"),
    ("NKp46-hz5D7v2-Fc* (Fc fusion, VHH-Fc fusion with an IgG1 Fc lacking a hinge (Fc*); also called NKp46-bz5D7v2-Fc*) EVQLVESGGGEVQPGGSLRLSCAASGRTFASAAMGWFRQAPGKEREFVAAISRSDDTYYAESVKGRFTISRDNAKNTLYLQMSSLRAEDTAVYYCAAVVPTYGNNIYVHSAAYNYWGQGTLVTVKPGGGGPSVFLFPPKPKDTLMISRTPEVTCVVVDVSHEDPEVKFNWYVDGVEVHNAKTKPREEQYNSTYRVVSVLTVLHQDWLNGKEYKCKVSNKALPAPIEKTISKAKGQPREPQVYTLPPSRDELTKNQVSLTCLVKGFYPSDIAVEWESNGQPENNYKTTPPVLDSDGSFFLYSKLTVDKSRWQQGNVFSCSVMHEALHNHYTQKSLSLSPG", "MFI", 938000),
    ("NKp46-hz5D7v9-Fc* (Fc fusion, VHH-Fc fusion with an IgG1 Fc lacking a hinge (Fc*)) EVQLVESGGGEVQPGGSLRLSCAASGRTFASAAMGWFRQAPGKEREFVAAISRSVDDTYYADSVKGRFTISRDNAKNTVYLQMSSLRAEDTAVYYCAAVVPTYGNNIYVHSAAYNYWGQGTLVTVKPGGGGPSVFLFPPKPKDTLMISRTPEVTCVVVDVSHEDPEVKFNWYVDGVEVHNAKTKPREEQYNSTYRVVSVLTVLHQDWLNGKEYKCKVSNKALPAPIEKTISKAKGQPREPQVYTLPPSRDELTKNQVSLTCLVKGFYPSDIAVEWESNGQPENNYKTTPPVLDSDGSFFLYSKLTVDKSRWQQGNVFSCSVMHEALHNHYTQKSLSLSPG", "MFI", "1.05e+06"),
    ("NKp46-5D7-Fc* (Fc fusion, VHH-Fc fusion with an IgG1 Fc lacking a hinge (Fc*); also called 5D7 VHH) QVTLRESGASLSLTCAASGRTFASAAMGWFRQAPGEEREFVAAISRSDDTYYADSVKGRFTISRDNAKNTVYLQMNSLKSEDTAVYYCAAVVPTYGNNIYVHSAAYNYWGQGTQVTVKPGGGGGPSVFLFPPKPKDTLMISRTPEVTCVVVDVSHEDPEVKFNWYVDGVEVHNAKTKPREEQYNSTYRVVSVLTVLHQDWLNGKEYKCKVSNKALPAPIEKTISKAKGQPREPQVYTLPPSRDELTKNQVSLTCLVKGFYPSDIAVEWESNGQPENNYKTTPPVLDSDGSFFLYSKLTVDKSRWQQGNVFSCSVMHEALHNHYTQKSLSLSPG", "MFI", "1.04e+06"),
]
